assay.overview: JC-1 mitochondrial signal, unstimulated HepG2 cells – cell-based, JC-1 fluorescence, 24 h, 100 nL compound, profiling panel (AID 1167); also: test concentration not given here
condition.context: HepG2 mitochondrial potential, higher = more signal
test.readout: z-score
Give bare numbers.

Consider the following illustrative entries.
CC(C)C[C@@H]1NC(=O)[C@@H]2C[C@H](C(=O)NCCCCN(C)C)[C@H](c3ccc(O)cc3)N2C1=O: -1.26
CN(C)CCCC[C@@H]1NC(=O)[C@@H]2C[C@H](C(=O)NCCCCCN)[C@H](c3ccc(O)cc3)N2C1=O: 1.25
CC(C)N1C(=O)c2ccccc2[C@](C)(C(=O)NCCCN(C)C)[C@@H]1c1ccc(CO)cc1: 0.861

# per-item lookup of z-score; items listed below
1. C=C(CCCC)C(=O)CC[C@H](OC(C)=O)c1ccc(CO)o1
2. COc1ccc(C(=O)Nc2cccc(CN3C(=O)[C@@]4(O[C@@H](CC(=O)N5Cc6ccccc6C[C@H]5CO)[C@H]([Si](C)(C)c5ccc(OC)cc5)[C@H]4C)c4ccccc43)c2)cc1
3. CCCNC(=O)[C@@]1(C)c2ccccc2C(=O)N(C(C)C)[C@H]1c1ccc(CO)cc1
4. CN1C(=O)C2C=CC(C(O)C=Cc3ccc([N+](=O)[O-])cc3)N(N3CCCCC3)C2C1=O (configuration not stated)
5. CN1C(=O)C2C(C1=O)C1C=C(c3ccc(CO)cc3)C2C(C2CC2)N1Cc1sc2ccccc2c1Cl (configuration not stated)
6. O=C(NCC(F)(F)F)[C@@H]1c2ccccc2C(=O)N(Cc2ccccc2)[C@H]1c1ccc(CO)cc1

0.299
0.851
0.977
-1.77
2.19
2.14

Look up z-score for the entries below, preserving their order.
1. C=CCN1Cc2ccccc2C[C@@]2(COC(c3ccc(OCCCO)cc3)=N2)C1=O
2. C=C[C@H](C)[C@H](OC(=O)Nc1ccc(OC)cc1)c1ccc(O)c2ccccc12
3. COCCOC(=O)N1C(=O)[C@@]2(c3cc(C#CC4=CCCCC4)ccc31)[C@H](C(=O)N1CCN(c3ncccn3)CC1)[C@H]1C(=O)O[C@H](c3ccccc3)[C@H](c3ccccc3)N1[C@@H]2c1ccc(OCCO)cc1
4. CC(=O)NCCCC[C@@H]1NC(=O)[C@@H]2C[C@H](C(=O)NCCCCCC[N+](C)(C)C)[C@H](c3cccc(OCCO)c3)N2C1=O
5. COC(=O)[C@@]1(Cc2ccc(F)cc2)[C@H]2c3cc(C(=O)N(C)C)n(CCCNc4ccc(C(F)(F)F)cc4Cl)c3C[C@H]2CN1C(=O)c1ccccc1
6. CCOC(=O)C=Cc1cccc(OC)c1O

[1.32, -3.3, -0.203, -1.51, 2.61, -0.94]

###

I'd be grateful if you could share measured composite z-score for these entries.
measured.target: Torsin-1A (Homo sapiens)
assay.overview: torsin A mutant lysate binding on microarrays – cell lysate, small-molecule microarray, COS7 lysate, 635/667 nm fluorescence, primary screen (AID 1150);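 also: score pools 667 nm emission and signal to noise measuring lysate protein binding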
condition.context: COS7 hTOR1A mutant lysate, 635 nm fluorescence, higher = more signal
Give bare numbers.

Batch request: composite z-score for each of the following compounds.
1. COc1ccc(C#Cc2ccc3c(c2)[C@]2(C(=O)N3)[C@H](C(=O)N3CCN(c4ncccn4)CC3)[C@H]3C(=O)O[C@H](c4ccccc4)[C@H](c4ccccc4)N3[C@@H]2c2ccc(O)cc2)cc1
2. C=CCNC(=O)[C@H]1[C@@H]2C(=O)O[C@@H](c3ccccc3)[C@@H](c3ccccc3)N2[C@@H](c2ccc(O)cc2)[C@]12C(=O)Nc1ccc(C#Cc3ccc(OC)cc3)cc12

1: 0.231; 2: 0.117

Dear colleague, could you send me composite z-score for each of the items below? Thanks.
1. Cc1ccc(N2C(=O)c3ccccc3[C@@H](C(=O)NCC(C)C)[C@@H]2c2ccc(CO)cc2)nc1
2. CCOC(=O)N1C(c2ccc(OCCCO)cc2)=NC(C(=O)OC)N1C(=O)OCC (centres undefined)

1. -1.47
2. 0.36
